// data source = paper PMC5700166

Consider the following sequences and their measured binding signal readings.
# SYSTEM_UNDER_TEST: GST-Hu-p50 (Homo sapiens, UniProt P19838 7-356)
# Sequence (P19838 7-356): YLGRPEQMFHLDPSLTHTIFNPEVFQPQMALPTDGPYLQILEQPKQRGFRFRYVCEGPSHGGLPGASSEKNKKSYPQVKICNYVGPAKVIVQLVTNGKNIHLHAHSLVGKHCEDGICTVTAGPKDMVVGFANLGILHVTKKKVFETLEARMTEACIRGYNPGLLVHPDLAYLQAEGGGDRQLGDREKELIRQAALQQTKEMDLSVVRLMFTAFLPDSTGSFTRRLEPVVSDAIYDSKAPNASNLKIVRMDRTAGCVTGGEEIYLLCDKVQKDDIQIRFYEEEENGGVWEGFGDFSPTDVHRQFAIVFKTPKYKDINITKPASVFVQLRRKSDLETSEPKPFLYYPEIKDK
# ASSAY_COMMENT: protein-binding microarray (PBM); PBM: ~300 nM protein, 6 mM HEPES pH 7.8, 80 mM KCl, 0.5 mM EDTA, 0.5 mM EGTA, 6% glycerol, 35 ng/ul poly-dIdC, 1% milk, 1 h, room temperature; high values mean tight binding
# MEASUREMENT_CONDITIONS: dsDNA, one strand shown
Answer format: numeric, z-score implied, no suffix.

Input: What value of binding signal has been reported for the following sequence? CCGATTAACATCAGTAAATCCCATGATGTTAATCGGGTCTTGATTCGCTTGACGCTGCTG
Output: 1.94

Input: What value of binding signal has been reported for the following sequence? CCGATTAACATCAAAAAAGCCCCTGATGTTAATCGGGTCTTGATTCGCTTGACGCTGCTG
Output: 7.54

====

# SYSTEM_UNDER_TEST: GST-Co-NF-kB (Capsaspora owczarzaki, UniProt F1ARL5 200-546)
# Sequence: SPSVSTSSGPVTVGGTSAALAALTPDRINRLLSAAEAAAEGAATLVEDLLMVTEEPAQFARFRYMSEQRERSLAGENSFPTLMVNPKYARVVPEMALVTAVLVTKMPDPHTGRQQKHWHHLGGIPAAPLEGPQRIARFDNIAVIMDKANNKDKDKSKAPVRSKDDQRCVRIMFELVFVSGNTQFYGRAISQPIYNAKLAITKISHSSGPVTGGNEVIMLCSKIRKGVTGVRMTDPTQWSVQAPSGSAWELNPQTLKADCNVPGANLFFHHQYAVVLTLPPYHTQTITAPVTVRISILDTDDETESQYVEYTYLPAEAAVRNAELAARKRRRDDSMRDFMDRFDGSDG
# ASSAY_COMMENT: protein-binding microarray (PBM); PBM: ~300 nM protein, 6 mM HEPES pH 7.8, 80 mM KCl, 0.5 mM EDTA, 0.5 mM EGTA, 6% glycerol, 35 ng/ul poly-dIdC, 1% milk, 1 h, room temperature; high values mean tight binding
# MEASUREMENT_CONDITIONS: dsDNA, one strand shown
Rule: binding signal of 5 z-score or more gives true; anything lower gives false.

Check out these entries, answers already filled in.
Input: Does binding signal meet or surpass 5 z-score for CCGATTAACATCAGGGGTTTTTATGATGTTAATCGGGTCTTGATTCGCTTGACGCTGCTG ?
Output: false

Input: Does binding signal meet or surpass 5 z-score for CCGATTAACATCACCCCTTCCCCTGATGTTAATCGGGTCTTGATTCGCTTGACGCTGCTG ?
Output: true

Further cases:
Input: Does binding signal meet or surpass 5 z-score for CCGATTAACATCAGACCTCCCCCTGATGTTAATCGGGTCTTGATTCGCTTGACGCTGCTG ?
Output: true

Input: Does binding signal meet or surpass 5 z-score for CCGATTAACATCATGAATTCCCATGATGTTAATCGGGTCTTGATTCGCTTGACGCTGCTG ?
Output: false

Input: Does binding signal meet or surpass 5 z-score for CCGATTAACATCAAGGGGGATTATGATGTTAATCGGGTCTTGATTCGCTTGACGCTGCTG ?
Output: false

====

# SYSTEM_UNDER_TEST: GST-Aq-NF-kB (Amphimedon queenslandica, UniProt A9Y5G7 2-389)
# Sequence: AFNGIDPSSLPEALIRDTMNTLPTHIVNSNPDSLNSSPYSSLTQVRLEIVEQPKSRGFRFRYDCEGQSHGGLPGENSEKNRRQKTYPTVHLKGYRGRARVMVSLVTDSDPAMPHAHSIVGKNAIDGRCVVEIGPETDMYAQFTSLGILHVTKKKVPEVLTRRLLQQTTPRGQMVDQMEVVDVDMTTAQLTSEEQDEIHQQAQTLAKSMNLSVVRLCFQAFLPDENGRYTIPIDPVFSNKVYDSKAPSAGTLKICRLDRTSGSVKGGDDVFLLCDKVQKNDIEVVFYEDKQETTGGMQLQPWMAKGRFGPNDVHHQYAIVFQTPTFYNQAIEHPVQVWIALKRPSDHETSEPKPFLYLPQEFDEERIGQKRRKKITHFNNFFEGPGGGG
# ASSAY_COMMENT: protein-binding microarray (PBM); PBM: ~300 nM protein, 6 mM HEPES pH 7.8, 80 mM KCl, 0.5 mM EDTA, 0.5 mM EGTA, 6% glycerol, 35 ng/ul poly-dIdC, 1% milk, 1 h, room temperature; high values mean tight binding
# MEASUREMENT_CONDITIONS: dsDNA, one strand shown
Consider the following sequences and their measured binding signal readings.
Answer format: numeric, z-score implied, no suffix.

Example entries and their recorded answers appear below.
Input: What value of binding signal has been reported for the following sequence? CCGATTAACATCAAAATTCCGGGTGATGTTAATCGGGTCTTGATTCGCTTGACGCTGCTG
Output: 1.67

Input: What value of binding signal has been reported for the following sequence? CCGATTAACATCAAAAAAATTTCTGATGTTAATCGGGTCTTGATTCGCTTGACGCTGCTG
Output: 1.23

Input: What value of binding signal has been reported for the following sequence? CCGATTAACATCACCTCTTTCCCTGATGTTAATCGGGTCTTGATTCGCTTGACGCTGCTG
Output: 2.52

Input: What value of binding signal has been reported for the following sequence? CCGATTAACATCAAAGGGGCTACTGATGTTAATCGGGTCTTGATTCGCTTGACGCTGCTG
Output: 3.2

Input: What value of binding signal has been reported for the following sequence? CCGATTAACATCACAATTTTCCCTGATGTTAATCGGGTCTTGATTCGCTTGACGCTGCTG
Output: 5.58

Input: What value of binding signal has been reported for the following sequence? CCGATTAACATCACGGGGGGGACTGATGTTAATCGGGTCTTGATTCGCTTGACGCTGCTG
Output: 5.17

Input: What value of binding signal has been reported for the following sequence? CCGATTAACATCAGGGGGAGTAATGATGTTAATCGGGTCTTGATTCGCTTGACGCTGCTG
Output: 4.18

Input: What value of binding signal has been reported for the following sequence? CCGATTAACATCAAACTTCCCCGTGATGTTAATCGGGTCTTGATTCGCTTGACGCTGCTG
Output: 7.04

Pending sequence:
Input: What value of binding signal has been reported for the following sequence? CCGATTAACATCAGGATGCCCCCTGATGTTAATCGGGTCTTGATTCGCTTGACGCTGCTG
Output: 5.09

====

# SYSTEM_UNDER_TEST: GST-Co-NF-kB (Capsaspora owczarzaki, UniProt F1ARL5 200-546)
# Sequence: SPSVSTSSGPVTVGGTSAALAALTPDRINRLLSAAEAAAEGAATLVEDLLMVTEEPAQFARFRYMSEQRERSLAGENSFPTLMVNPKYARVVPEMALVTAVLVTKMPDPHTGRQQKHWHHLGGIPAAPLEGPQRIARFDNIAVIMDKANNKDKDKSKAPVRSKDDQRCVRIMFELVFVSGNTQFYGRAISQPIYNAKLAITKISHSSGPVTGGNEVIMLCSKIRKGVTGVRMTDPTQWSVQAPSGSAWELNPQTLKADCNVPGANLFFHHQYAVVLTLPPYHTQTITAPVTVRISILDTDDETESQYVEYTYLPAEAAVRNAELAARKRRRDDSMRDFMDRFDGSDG
# ASSAY_COMMENT: protein-binding microarray (PBM); PBM: ~300 nM protein, 6 mM HEPES pH 7.8, 80 mM KCl, 0.5 mM EDTA, 0.5 mM EGTA, 6% glycerol, 35 ng/ul poly-dIdC, 1% milk, 1 h, room temperature; Ap Aiptasia and Nv Nematostella (sea anemones) / Co Capsaspora / Aq Amphimedon (sponge) / Dm Drosophila / Hu human; RHD is the Rel homology domain; high values mean tight binding
# MEASUREMENT_CONDITIONS: dsDNA, one strand shown
Recorded binding signal determines the label; the label ranges are label 0: < 3 z-score; label 1: ≥ 3 z-score and < 7 z-score; label 2: ≥ 7 z-score

Input: Looking at CCGATTAACATCACTTATCCCCCTGATGTTAATCGGGTCTTGATTCGCTTGACGCTGCTG , which class would you pick?
Output: label 1

Input: Looking at CCGATTAACATCAGGGGATCTTATGATGTTAATCGGGTCTTGATTCGCTTGACGCTGCTG , which class would you pick?
Output: label 1

Input: Looking at CCGATTAACATCACGGTACGGGGTGATGTTAATCGGGTCTTGATTCGCTTGACGCTGCTG , which class would you pick?
Output: label 0

Further cases:
Input: Looking at CCGATTAACATCAGGGCCTCCCCTGATGTTAATCGGGTCTTGATTCGCTTGACGCTGCTG , which class would you pick?
Output: label 0

Input: Looking at CCGATTAACATCAAAATACCCCTTGATGTTAATCGGGTCTTGATTCGCTTGACGCTGCTG , which class would you pick?
Output: label 1

Input: Looking at CCGATTAACATCAGATCTTCCCCTGATGTTAATCGGGTCTTGATTCGCTTGACGCTGCTG , which class would you pick?
Output: label 2

Input: Looking at CCGATTAACATCAGGGGGTGCACTGATGTTAATCGGGTCTTGATTCGCTTGACGCTGCTG , which class would you pick?
Output: label 0

Input: Looking at CCGATTAACATCAAGTTTCCCCATGATGTTAATCGGGTCTTGATTCGCTTGACGCTGCTG , which class would you pick?
Output: label 2
